Here we list compounds with their recorded pIC50 when tested on PDGFRA (Homo sapiens, UniProt P16234).
Sequence (P16234 24-1089): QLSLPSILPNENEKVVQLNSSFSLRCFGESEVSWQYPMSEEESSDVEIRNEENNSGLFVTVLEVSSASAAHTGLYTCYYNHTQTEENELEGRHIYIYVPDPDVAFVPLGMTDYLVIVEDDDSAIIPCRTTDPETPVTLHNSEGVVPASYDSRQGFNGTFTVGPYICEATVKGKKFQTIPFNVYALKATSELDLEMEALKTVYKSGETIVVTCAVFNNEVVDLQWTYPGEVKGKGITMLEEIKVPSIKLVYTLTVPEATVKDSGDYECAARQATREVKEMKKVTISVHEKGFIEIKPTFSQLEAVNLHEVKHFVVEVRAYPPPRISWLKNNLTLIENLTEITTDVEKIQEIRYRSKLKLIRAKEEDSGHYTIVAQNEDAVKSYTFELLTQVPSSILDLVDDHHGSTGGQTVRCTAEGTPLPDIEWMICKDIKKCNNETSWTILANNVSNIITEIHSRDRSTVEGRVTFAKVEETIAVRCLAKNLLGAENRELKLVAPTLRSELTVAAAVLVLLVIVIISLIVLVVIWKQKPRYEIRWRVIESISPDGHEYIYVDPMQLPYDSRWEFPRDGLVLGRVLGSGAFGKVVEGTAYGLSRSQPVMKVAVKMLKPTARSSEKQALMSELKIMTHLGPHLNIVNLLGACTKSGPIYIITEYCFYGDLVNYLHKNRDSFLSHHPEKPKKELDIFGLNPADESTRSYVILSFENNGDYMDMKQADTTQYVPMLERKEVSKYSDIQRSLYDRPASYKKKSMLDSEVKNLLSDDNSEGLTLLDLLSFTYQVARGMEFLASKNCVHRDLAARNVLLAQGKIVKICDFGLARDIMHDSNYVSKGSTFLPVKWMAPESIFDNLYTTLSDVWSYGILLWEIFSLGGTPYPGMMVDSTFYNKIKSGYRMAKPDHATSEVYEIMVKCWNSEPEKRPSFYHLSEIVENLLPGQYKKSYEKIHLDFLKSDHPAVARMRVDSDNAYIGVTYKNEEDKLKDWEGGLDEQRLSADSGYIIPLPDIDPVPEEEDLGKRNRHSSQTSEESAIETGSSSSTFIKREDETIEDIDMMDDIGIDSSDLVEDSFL
pIC50: −log10 of the molar value.

>  <structure-smiles>
COc1cc2ncnc(Oc3ccc(NC(=O)N4CCCC4)cc3)c2cc1OC

>  <pIC50>
6.91

$$$$
>  <structure-smiles>
COc1cc2ncnc(Oc3ccc(NC(=O)NC4CC4)cc3)c2cc1OC

>  <pIC50>
7.22

$$$$
